Property: IC50; scope: individual compounds
Tested on: JeKo-1
protocolSummary: Antiproliferative activity against human Jeko-1 cells expressing CRBN-knockout assessed as cell viability measured after 7 days by CCK-8 assay
Format: functional, cell-based
assayConditions: JeKo-1, 168 h
Field: numeric (µM). Do not append units.

compound=CNC(=O)C[C@@H]1C[C@@H](c2cccc(F)c2)[C@H](NC(=O)c2ccc(-c3c(Cl)cnn3C)s2)CN1 measured=0.35

Turning to the following compound.
Tell me IC50 reported for Cn1ncc(Cl)c1-c1cc(C(=O)N[C@@H]2CN[C@H](CC(=O)Nc3ccc(OCCOCCOCCNc4cccc5c4C(=O)N(C4CCC(=O)NC4=O)C5=O)cc3)C[C@H]2c2cccc(F)c2)oc1Cl (stereo not given in full)
2.32

====

Test system: MM1.S
protocolSummary: Antiproliferative activity against human MM1.S cells assessed as cell viability measured after 7 days by CCK-8 assay
Format: functional, cell-based
assayConditions: 168 h
Exam item: assign T to entries whose IC50 is below 40 nM and F to entries at or above 40 nM. Note that a value of exactly 40 nM receives F.

These recorded examples may help you get a feel for the data.
molecule="Nc1cccc2c1CN(C1CCC(=O)NC1=O)C2=O (stereo not given) [LENALIDOMIDE]" assignedlabel=F
molecule=CNC(=O)C[C@@H]1C[C@@H](c2cccc(F)c2)[C@H](NC(=O)c2ccc(-c3c(Cl)cnn3C)s2)CN1 assignedlabel=F
molecule="Cn1ncc(Cl)c1-c1cc(C(=O)N[C@@H]2CN[C@H](CC(=O)Nc3ccc(OCCOCCOCCNc4cccc5c4C(=O)N(C4CCC(=O)NC4=O)C5=O)cc3)C[C@H]2c2cccc(F)c2)oc1Cl (stereo not given in full)" assignedlabel=T

Now take the following molecule into account.
Lab log: compare recorded IC50 with 40 nM; is it strictly lower for Nc1cccc2c1C(=O)N(C1CCC(=O)NC1=O)C2=O (stereo not given) [POMALIDOMIDE] ?
T

====

System: JeKo-1
protocolSummary: Antiproliferative activity against human Jeko-1 cells assessed as cell viability measured after 7 days by CCK-8 assay
Assay type: functional, cell-based
assayConditions: JeKo-1, 168 h
Property: pIC50; scope: individual molecules
Lab note — pIC50 values are minus log10 of concentrations in M.

Check out these entries, answers already filled in.
molecule="Cn1ncc(Cl)c1-c1cc(C(=O)N[C@@H]2CN[C@H](CC(=O)Nc3ccc(OCCOCCOCCNc4cccc5c4C(=O)N(C4CCC(=O)NC4=O)C5=O)cc3)C[C@H]2c2cccc(F)c2)oc1Cl (stereo not given in full)" measured=6.69
molecule=CNC(=O)C[C@@H]1C[C@@H](c2cccc(F)c2)[C@H](NC(=O)c2ccc(-c3c(Cl)cnn3C)s2)CN1 measured=6.30

Turning to the following molecule.
Tell me pIC50 reported for Nc1cccc2c1C(=O)N(C1CCC(=O)NC1=O)C2=O (stereo not given) [POMALIDOMIDE]
5.58

====

System: JeKo-1
protocolSummary: Antiproliferative activity against human Jeko-1 cells expressing CRBN-knockout assessed as cell viability measured after 7 days by CCK-8 assay
Assay type: functional, cell-based
assayConditions: JeKo-1, 168 h
Property: IC50; scope: individual molecules

Check out these entries, answers already filled in.
molecule="Nc1cccc2c1C(=O)N(C1CCC(=O)NC1=O)C2=O (stereo not drawn) [POMALIDOMIDE]" targetundertest=JeKo-1 measured="> 20 µM"
molecule="Nc1cccc2c1CN(C1CCC(=O)NC1=O)C2=O (stereo not drawn) [LENALIDOMIDE]" targetundertest=JeKo-1 measured="> 20 µM"

Tell me IC50 reported for COCCOCCOCCNc1cccc2c1C(=O)N(C1CCC(=O)NC1=O)C2=O (stereo not drawn)
> 20 µM
